Catalogue of normalised cell viability readings, one per entry.
# System: NCI-H1944;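 further: CTB read-out in 384-well plates, triplicate wells, NPI normalised per plate against 1 µM phenylarsine oxide (0) and 0.1% DMSO (1) controls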
# Experimental protocol: normalised cell viability (NPI; 0 = phenylarsine oxide control, 1 = DMSO control) (fraction of DMSO control); NCI-H1944 is a non-small cell lung cancer line; higher = more viable cells (less compound toxicity)
# Condition label: glucocorticoid arm: vehicle; compound 1 µM; 6 days
Counter-ions that a name gives are not always drawn. In all, about 1,900 compounds were measured (“normalised cell viability (NPI; 0 = phenylarsine oxide control, 1 = DMSO control)”: median about 1, lowest 2% from about 0.039 on). The sample as a whole holds a higher share of the lowest values than the screen did.
Please reply with the number alone, leaving off any unit.

Known results for compounds:
• COc1ccc2c(c1)[C@@]13CCCC[C@H]1[C@@H](C2)NCC3 [3-Methoxymorphinan hydrochloride] = 1
• CCCN(CCC)[C@@H]1CCc2c(F)ccc(O)c2C1 [R(+)-UH-301 hydrochloride] = 1.02
• CCC(=O)CCCCC[C@@H]1NC(=O)[C@H]2CCCCN2C(=O)[C@H]([C@@H](C)CC)NC(=O)[C@H](Cc2cn(OC)c3ccccc23)NC1=O = 0.0476
• COc1cc(C(O)CN)ccc1O (racemic) [(±)-Normetanephrine hydrochloride] = 0.995
• CCCn1c(C)c(C(=O)c2cccc3ccccc23)c2ccccc21 = 0.998

Okay, next one:
Quick note, normalised cell viability for O=[N+]([O-])c1ccc(O[C@@H]2O[C@H](CO)[C@@H](O)[C@H](O)[C@H]2F)c([N+](=O)[O-])c1 [2,4-Dinitrophenyl 2-fluoro-2-deoxy-beta-D-glucopyranoside] landed at 0.981
